- assayProtocol: Inhibition of 5-LOX assessed as calcium ionophore A23187-stimulated LTB4 production preincubated for 30 mins followed by calcium ionophore A23187 addition and measured after 30 mins by ELISA
experimentalEndpoint: IC50 (nM)

Solved entries:
CCOc1ccc(-c2cc(C(=O)OCCN3CCOCC3)nn2-c2ccc(S(N)(=O)=O)cc2)cc1    790
COc1cccc(-c2cc(C(=O)N3CCOCC3)nn2-c2ccc(S(N)(=O)=O)cc2)c1    960
NS(=O)(=O)c1ccc(-n2nc(C(=O)OCCN3CCOCC3)cc2-c2ccc(C(F)(F)F)cc2)cc1    810

P: Cc1ccc(-c2cc(C(=O)N3CCSCC3)nn2-c2ccc(S(N)(=O)=O)cc2)cc1
Q: COc1ccc(-c2cc(C(=O)NCCCN3CCOCC3)nn2-c2ccc(S(N)(=O)=O)cc2)cc1
R: NS(=O)(=O)c1ccc(-n2nc(C(=O)N3CCSCC3)cc2-c2ccccc2)cc1
S: NS(=O)(=O)c1ccc(-n2nc(C(=O)NCCCN3CCOCC3)cc2-c2ccc(C(F)(F)F)cc2)cc1
T: NS(=O)(=O)c1ccc(-n2nc(C(=O)N3CCSCC3)cc2-c2ccc(Cl)cc2)cc1
Q: Task field, ranking: reported IC50, descending order. Please respond with the labels ordered as the question requires.
A: R, T, P, Q, S

---

- Species: Homo sapiens
- assayProtocol: Selectivity index, ratio of IC50 for COX1 (unknown origin) to IC50 for COX2 (unknown origin)
experimentalEndpoint: Ratio IC50

NS(=O)(=O)c1ccc(-n2nc(C(=O)NCCCN3CCOCC3)cc2-c2ccc(C(F)(F)F)cc2)cc1    189
NS(=O)(=O)c1ccc(-n2nc(C(=O)N3CCSCC3)cc2-c2ccc(C(F)(F)F)cc2)cc1    162
NS(=O)(=O)c1ccc(-n2nc(C(=O)OCCCN3CCOCC3)cc2-c2ccc(C(F)(F)F)cc2)cc1    136
NS(=O)(=O)c1ccc(-n2nc(C(=O)N3CCSCC3)cc2-c2cccc(Cl)c2)cc1    140

---

- studyTarget: Prostaglandin G/H synthase 2 (Homo sapiens, UniProt P35354)
- Sequence (P35354 whole entry): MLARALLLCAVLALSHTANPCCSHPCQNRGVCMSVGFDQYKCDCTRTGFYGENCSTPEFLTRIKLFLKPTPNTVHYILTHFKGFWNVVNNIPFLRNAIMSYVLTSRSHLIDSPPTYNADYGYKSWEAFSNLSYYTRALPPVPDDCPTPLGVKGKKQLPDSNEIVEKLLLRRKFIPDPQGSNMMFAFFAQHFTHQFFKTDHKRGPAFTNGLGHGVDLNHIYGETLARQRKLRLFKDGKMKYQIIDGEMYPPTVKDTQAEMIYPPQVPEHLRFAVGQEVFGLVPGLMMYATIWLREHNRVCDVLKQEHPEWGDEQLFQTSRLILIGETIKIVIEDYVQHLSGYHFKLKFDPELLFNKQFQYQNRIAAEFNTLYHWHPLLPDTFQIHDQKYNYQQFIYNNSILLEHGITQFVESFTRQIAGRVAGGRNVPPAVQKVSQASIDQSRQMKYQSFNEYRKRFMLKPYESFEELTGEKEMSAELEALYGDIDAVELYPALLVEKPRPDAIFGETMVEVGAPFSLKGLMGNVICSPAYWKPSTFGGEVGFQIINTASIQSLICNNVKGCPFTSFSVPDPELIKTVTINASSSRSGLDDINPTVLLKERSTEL
pIC50: −log10 of the molar value.
experimentalEndpoint: pIC50

NS(=O)(=O)c1ccc(-n2nc(C(=O)NCCCN3CCOCC3)cc2-c2ccc(C(F)(F)F)cc2)cc1    6.77
NS(=O)(=O)c1ccc(-n2nc(C(=O)N3CCOCC3)cc2-c2ccc(Cl)cc2)cc1    6.46
CCOc1ccc(-c2cc(C(=O)N3CCSCC3)nn2-c2ccc(S(N)(=O)=O)cc2)cc1    6.01

A: NS(=O)(=O)c1ccc(-n2nc(C(=O)N3CCSCC3)cc2-c2cccc(F)c2)cc1
B: CCOc1ccc(-c2cc(C(=O)OCCN3CCOCC3)nn2-c2ccc(S(N)(=O)=O)cc2)cc1
C: NS(=O)(=O)c1ccc(-n2nc(C(=O)N3CCOCC3)cc2-c2ccc(C(F)(F)F)cc2)cc1
Q: Task field, ranking: reported pIC50, descending order. Please respond with the labels ordered as the question requires.
A: A, C, B
(A: 6.72, C: 6.41, B: 5.95)

---

- assayProtocol: Inhibition of 5-LOX assessed as calcium ionophore A23187-stimulated LTB4 production preincubated for 30 mins followed by calcium ionophore A23187 addition and measured after 30 mins by ELISA
pIC50: −log10 of the molar value.
experimentalEndpoint: pIC50

NS(=O)(=O)c1ccc(-n2nc(C(=O)N3CCOCC3)cc2-c2ccc(Br)cc2)cc1    6.01
NS(=O)(=O)c1ccc(-n2nc(C(=O)NCCN3CCOCC3)cc2-c2ccc(F)cc2)cc1    6.00
CCOc1ccc(-c2cc(C(=O)N3CCOCC3)nn2-c2ccc(S(N)(=O)=O)cc2)cc1    6.02
NS(=O)(=O)c1ccc(-n2nc(C(=O)N3CCSCC3)cc2-c2ccc(C(F)(F)F)cc2)cc1    6.15
COc1ccc(-c2cc(C(=O)N3CCOCC3)nn2-c2ccc(S(N)(=O)=O)cc2)cc1    6.03

P: NS(=O)(=O)c1ccc(-n2nc(C(=O)OCCCN3CCOCC3)cc2-c2ccc(F)cc2)cc1
Q: NS(=O)(=O)c1ccc(-n2nc(C(=O)N3CCOCC3)cc2-c2ccc(C(F)(F)F)cc2)cc1
R: NS(=O)(=O)c1ccc(-n2nc(C(=O)N3CCSCC3)cc2-c2ccc(F)cc2)cc1
Q: Task field, ranking: reported pIC50, descending order. Please respond with the labels ordered as the question requires.
A: P, R, Q
(P: 6.12, R: 5.90, Q: 5.59)
